Test: small-molecule microarray binders of probe aLefty2, primary screen, biochemical, biotinylated probe, 635/667 nm fluorescence (AID 1094);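 note: score merges spot fluorescence near 667 nm with spot signal-to-noise ratio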
Details: higher = more signal
Class boundaries, taken from values of composite z-score, are as follows: category 1 = under -0.1, category 2 = from -0.1 up to 0.04, category 3 = 0.04 and over

CC(=O)n1cc(C(O)C2C=CC3C(=O)N(C)C(=O)C3N2Nc2ccccc2)c2ccccc21 (stereo not given): category 3
COc1ccc([Si](C)(C)[C@@H]2[C@@H](CC(=O)N3Cc4ccccc4C[C@H]3CO)O[C@]3(C(=O)N(C)c4c(Br)cc(C)cc43)[C@H]2C)cc1: category 1
O=C1O[C@H](c2ccccc2)[C@H](c2ccccc2)N2[C@H]1[C@@H](C(=O)N1CCN(c3ncccn3)CC1)[C@]1(C(=O)Nc3ccc(C#CC4=CCCCC4)cc31)[C@H]2c1ccc(O)cc1: category 2
CN(C)C(=O)[C@@]1(Cc2ccccc2)N=C(c2ccc(OCCCO)cc2)O[C@H]1c1ccccc1N=[N+]=[N-]: category 3
CC(C)C(CO)N1C(=O)[C@@H]2[C@H]3C(=O)OCC=C[C@H]3OC23C=CCN(C(C)C)C(=O)[C@@H]13 (stereo not given in full): category 1

### Prompt Category lookup for the compound CCOC(=O)C1=CCC(c2ccc(C)cc2)N(S(=O)(=O)c2ccc(C)cc2)C1 (stereo not given)
### Response category 2

### Prompt Category lookup for the compound O=C1O[C@H](c2ccccc2)[C@H](c2ccccc2)N2[C@H]1[C@@H](C(=O)O)[C@]1(C(=O)Nc3ccc(C#CC4=CCCCC4)cc31)[C@H]2c1ccccc1OCCO
### Response category 3

### Prompt Category lookup for the compound C=C[C@H](COC(C)=O)N(C(=O)OC(C)(C)C)S(=O)(=O)c1ccc(Br)cc1
### Response category 3

### Prompt Category lookup for the compound CCOC(=O)C=Cc1cc([N+](=O)[O-])ccc1O
### Response category 2

### Prompt Category lookup for the compound C=CCN1C(=O)[C@]2(O[C@H](CCO)[C@@H]([Si](C)(C)c3ccc(OC)cc3)[C@@H]2C)c2cc(N3C(=O)c4cccc5cccc3c45)ccc21
### Response category 1

### Prompt Category lookup for the compound NCCCCCNC(=O)[C@@H]1C[C@@H]2C(=O)NCC(=O)N2[C@@H]1c1ccc(O)cc1
### Response category 1

### Prompt Category lookup for the compound CCOc1cc(C(O)C2C=CC3C(=O)N(c4ccccc4)C(=O)C3N2Nc2ccccc2)ccc1O (stereo not given)
### Response category 2

### Prompt Category lookup for the compound O=C1C[C@]2(c3ccc([N+](=O)[O-])cc3)C(=O)N(CCN3CCOCC3)c3cc(CO)ccc3[C@H]2N1C1CCCCC1
### Response category 2
